Kindly supply the reported viability values for the records listed here.
assay: drug combination growth inhibition, ovarian cancer – cell-based, oncology-focused library, rucaparib conditional, profiling panel (AID 1508598); details: patient-derived ovarian cancer cells, CellTiter-Glo viability, 144 h; at 1.25 µM; OCI-P5x cells; without rucaparib; active compounds read low
Answers are plain numbers, in %.

Record excerpt, results attached:
COMPOUND_SMILES	viability [%]
Cn1cc(-c2ccc3nnc(Sc4ccc5ncccc5c4)n3n2)cn1	104
Cc1ccc(-c2csc(NC(=O)c3ccccc3)n2)c(C)c1	103
Cn1cncc1[C@@](N)(c1ccc(Cl)cc1)c1ccc2c(c1)c(-c1cccc(Cl)c1)cc(=O)n2C	28.3
CC(C)[C@H](C(=O)Nc1ccc(C(=O)NO)cc1)c1ccccc1	39.9

# get_value(readout='viability', item= `O=C(Nc1cccnc1)N1CCC(Cc2cccc(Oc3ccc(C(F)(F)F)cn3)c2)CC1` )
96.3

These data points were gathered from PubChem BioAssay.
